Tested on: MDA-MB-435
Assay Remarks: NCI tumour cell line growth inhibition, 48 h
Below, each entry is listed alongside its reported TGI.
Recorded Endpoint: TGI (µM)

> print(dat)
                                    molecule  unit.spec  readout.relation  recorded.result
 1  COc1cccc(C2=NN(C(C)=O)C(c3cc(OC)c(OC)c(OC)c3)C2)c1 (configuration not stated)         µM                 =            0.782
 2  N#Cc1cc2c(n(C3OC(CO)C(O)C(O)C3O)c1=S)CCCCC2 (configuration not stated)         µM                 >              100
 3         O=C1C(=O)c2ccccc2C=C1[N+](=O)[O-]         µM                 =             31.8
 4       C/C(Sc1ccccc1)=C1/CCCN(Cc2ccccc2)C1         µM                 =             87.7
 5  CCN(CC)CC(O)CNc1ccc(NCC(O)CCl)c2c1C(=O)c1ccccc1C2=O (configuration not stated)         µM                 =             18.6
 6                 Nc1sccc1S(=O)(=O)c1ccsc1N         µM                 >              100
 7  Clc1ccc(NCc2nnc(COc3ccc(OCc4nnc(CNc5ccc(Cl)cc5)o4)c(Cl)c3)o2)cc1         µM                 >              100
 8            Nc1ccc(-c2nc3cc(F)ccc3s2)cc1Br         µM                 >              100
 9  CCOC(=O)C(Cc1ccc(OC(=O)c2ccc(OC)cc2OC)cc1)NC(=O)C(F)(F)F (configuration not stated)         µM                 =             34.9
10          CCOC(=O)c1c(Nc2ccccc2)sc2cccnc12         µM                 =             54.6
11  CC(C)=C1C(=O)C[C@]2(C)C/C=C(\C)CC/C=C(\C)CC[C@@H]12         µM                 =               20
12  C=C1C(=O)O[C@H]2[C@H]1CC/C(COC(=O)NCc1c[nH]c3ccc(OC)cc13)=C\CC[C@@]1(C)O[C@@H]21         µM                 =             2.87
13  CCOc1ccc(/C=N/Nc2cc(C)nc3ccc(Cl)cc23)cc1         µM                 =             3.26
14  COc1cc(/C=C2\N=C(c3ccccc3)N(c3nc4c(Cl)cc(Cl)cc4s3)C2=O)ccc1O         µM                 >              100
15                        CNC(=S)NNC1=NCCCN1         µM                 >              100
16  CCCCCCCCCCCCCCCCCC(=O)[O][Sn]([CH2]CCC)([CH2]CCC)[CH2]CCC         µM                 =            0.441
17         CN(C)C/C=C(/c1ccc(Br)cc1)c1cccnc1         µM                 >              100
18  COC(=O)c1c2c(c[n+]([O-])c1C)C(=O)C(NCc1ccccc1)=CC2=O         µM                 =            0.376
19                   S=c1cn[nH]c2ccc(Br)cc12         µM                 >              100
20  Oc1ccc(Cl)cc1Cc1cc(Cl)cc(Cc2cc(Cl)ccc2O)c1O         µM                 =              9.3
21  CCNC(=O)Nc1ccc(-c2nc3c(c(N4CCOC[C@@H]4C)n2)CCN(C2COC2)C3)cc1         µM                 >             25.6
22         O=c1oc2c(Br)c(O)c(Br)cc2c2ccccc12         µM                 >              100

====

Tested on: NCI-H460 lung
Assay Remarks: NCI tumour cell line growth inhibition, 48 h
Recorded Endpoint: TGI

> print(dat)
                                    compound  recorded.result
 1  Clc1cccc(Cn2cc(Cc3cn(Cc4cccc(Cl)c4)c4ccccc34)c3ccccc32)c1         > 100 µM
 2          COc1cc(O)c2c(=O)c3ccccc3n(C)c2c1         > 100 µM
 3  COc1cc2c3c(n(CCCN=[N+]=[N-])c(=O)c2cc1OC)-c1ccc(N)cc1C3=O         0.139 µM
 4  CN(C)c1cc2c(cc1Sc1nc3c(N)nccc3n1CCNCC(C)(C)C)OCO2          12.1 µM
 5  O=C(N/N=C\c1ccc([N+](=O)[O-])cc1)Nc1ccccc1         > 100 µM
 6                            S=C1CNC(=S)CN1         > 100 µM
 7  CSc1c(C#N)c(O)n(-c2ccc(Cl)cc2)c(=O)c1C#N         > 100 µM
 8  CC1=NN(c2cccc(Cl)c2)C(=N/c2nc3ccccc3s2)/C1=C\C=C\c1ccccc1         > 100 µM
 9  O=CC(O)C(O)C(O)COc1cc(CO)cc2c1C(=O)c1ccccc1C2=O (stereo not given)         > 100 µM
10  C=C1C(=O)O[C@H]2[C@H]1CC/C(COC(=O)NCc1c[nH]c3ccc(OC)cc13)=C\CC[C@@]1(C)O[C@@H]21          16.7 µM

====

Catalogue of TGI readings, one per entry.
System: COLO 205 colon
Assay Remarks: NCI tumour cell line growth inhibition, 48 h

Compound	Unit Spec	Readout Relation	TGI
CCOC(=O)C(=CNC(Cc1c[nH]c2ccccc12)C(=O)OC)C(=O)OCC (centres undefined)	nM	>	100000
C[C@H]1O[C@@H](O[C@H]2[C@@H](O)C[C@H](O[C@H]3[C@@H](O)C[C@H](O[C@H]4CC[C@]5(C)C6C[C@@H](O)[C@]7(C)[C@@H](C8=CC(=O)OC8)CC[C@]7(O)C6CC[C@@H]5C4)O[C@@H]3C)O[C@@H]2C)C[C@H](O)[C@@H]1O (some centres undefined)	nM	=	374
COc1cc2c3c(n(CCCN=[N+]=[N-])c(=O)c2cc1OC)-c1ccc(N)cc1C3=O	nM	=	1230
Cc1ccc(/C=C/C(=O)c2sc(C(N)=S)nc2C)cc1	nM	>	100000

====

Test system: K-562 leukemia
Assay Remarks: NCI tumour cell line growth inhibition, 48 h
Recorded Endpoint: TGI

> print(dat)
                                    compound   target.system  recorded.result
 1          Cc1ccc2c(=O)c(-c3nnsn3)c[nH]c2n1  K-562 leukemia         > 100 µM
 2                            S=C1CNC(=S)CN1  K-562 leukemia         > 100 µM
 3  COc1ccccc1/C=C1\CCC(CN(C)C)C1=O (configuration not stated)  K-562 leukemia          11.3 µM
 4  CN(C)c1cc2c(cc1Sc1nc3c(N)nccc3n1CCNCC(C)(C)C)OCO2  K-562 leukemia            11 µM
 5  N#Cc1cc2c(n(C3OC(CO)C(O)C(O)C3O)c1=S)CCCCC2 (configuration not stated)  K-562 leukemia         > 100 µM
 6          Nc1ccccc1C#Cc1ccccc1C#Cc1ccccc1N  K-562 leukemia          12.8 µM
 7        Cc1cc2c(cc1Cl)SC(NN(C)C)=NS2(=O)=O  K-562 leukemia          > 10 µM
 8        COc1ccc(Cc2cc(OC)c(OC)c(OC)c2)cc1O  K-562 leukemia         > 100 µM
 9  O=C(O)C(F)(OC(F)(F)C(F)(F)C(F)(F)F)C(F)(F)F (configuration not stated)  K-562 leukemia         > 100 µM
10  CN(C)c1cc2c(Nc3ccc4nc(Cc5ccccc5)[nH]c4c3)ncnc2cn1  K-562 leukemia          > 25 µM
11  CCNC(=O)Nc1ccc(-c2nc3c(c(N4CCOC[C@@H]4C)n2)CCN(C2COC2)C3)cc1  K-562 leukemia         > 100 µM
12  COC1=C(C)C(=O)C2C(C1=O)C(c1ccc(OC)c(OC)c1)[C@H]2C (some centres not stated)  K-562 leukemia         > 100 µM

Entry source: PubChem BioAssay (NCI)
